molecular target: T1, recombinant human ErbB2/Fc chimera (human, UniProt P04626 23-652); assay: ELISA, coated ErbB2/Fc
T1 construct: bought from R&D Systems; also called rhErbB2-Fc; rhErb2-Fc; Fc part of the bought chimera not given; not described
measurement-kind: binding result

Answered cases to consult:
11A13/1-125 (VHH, C-term myc-His6 tag) VHH: EVQLVESGGGLVQAGDSLRLSCVASGGTFGSYAMGWFRQAPGKEREFVATIDWSGDTAFYADSVKGRFTISRDIANDVVYLQMNSLEPEDTAVYYCARNRQSGVASENLRLYTYWGQGTQVTVSS; binds
15B11 (VHH, C-term myc-His6 tag) VHH: EVQLVESGGGSVQAGGSLRLSCVVSGIPSSIRAMAWYRQAPGRQRDWVATIYSRSGGAVYADSVKGRFTISSDNAKNTIYLQMNSLKPDDTAVYYCRDVNRDYWGQGTQVTVSS; binds
11A52/1-120 (VHH, C-term myc-His6 tag) VHH: EVQLVESGGGLVQAGGSLRLSCAASGRALSNYAMRWFRQAPGKEREFVATINWSGSHTDYADSVKGRFTISRDNAENTVYLQMNSLTPEDTAVYYCASGWGATQAQSGFWGQGTQVTVSS; binds
12C81/1-117 (VHH, C-term myc-His6 tag) VHH: EVQLVESGGGLVQPGGSLRLSCAGSGNIVRDNTMAWYRQAPGNQRDLVATINVGGGTYYAGPVKGRFTISRDNAKNSVYLQMNSLKPEDTSVYYCNVISGLVQRDYWGQGTQVTVSS; binds
22C51/1-121 (VHH, C-term myc-His6 tag) VHH: EVQLVESGGGLVQAGASLRLSCAASGRTFSRYDIGWFRQAPGKGREFVAAINWSGGTTSFGDSVKGRFTISRDNAKNTVYLQMNSLKPEDTAVYYCAALRSWPRGVDSGSWGQGTQVTVSS; binds
118N121_B8_1_OK/1-135 (VHH, C-term myc-His6 tag) VHH: EVQLVESGGGLVQDGGSLRLSCAASGQLANFASYAMGWFRQAPGKAREFVAAIRGSGGSTYIADPARSTYYADFVKGRFTISRDNAKNTVYLQMNSLKPEDTAVYYCACETFNSISNLPGEYDYWGQGTQVTVSS; binds
17G5 (VHH, C-term myc-His6 tag) VHH: EVQLVESGGGLVQPGGSLRLSCAASGIGIAFSSRTMAWYRQAPGKQRDWVATIGSGGTTNYADSVKGRFTISRDNAKNTVYLQMNSLKPEDTAVYYCRDINRDYWGQGTQVTVSS; binds
46E4 (VHH, C-term myc-His6 tag) VHH: EVQLVESGGGLVQAGGSLRLSCAASGRAFKDDAVGWFRQAPGKERECVASMYLDGDYPYYADSVKGRFTISRDNAKNAVILQMNNLKTEDTAVYYCAAKPGWVARDPSEYNYWGQGTQVTVSS; binds
17B5 (VHH, C-term myc-His6 tag) VHH: EVQLVESGGGLVQTGGSLRLSCAASGSTFRTDMMGWYRQAPGKQREFVASITKFGSTNYADSVKGRFTISNDNAKDTVYLQMNSLKSEDTAVYYCRNFNRDLWGQGTQVTVSS; binds
11A121/1-126 (VHH, C-term myc-His6 tag) VHH: EVQLVESGGGLVQAGGSLRLSCVVSEGTFSSYSMGWFRQAPGKDREFVSAITWNGTRTYYRDSVKGRFTISRDNAKNTVQLQMNSLKPEDTAVYYCAVSQPLNYYTYYDARRYDYWGQGTQVTVSS; binds

Shift focus to the following entry.
input: Fill in binding result for record 14B4 (VHH, C-term myc-His6 tag) VHH: EVQLVESGGGLVQAGGSLRLSCAVSSRAFSSYGMGWFRQAPGKDREFVATINWSGVTAYADSIKGRFTISRDNAKETVYLQMNSLKPEDTGVYYCAAETYGSGSSLMSEYDYWGQGTQVTVSS
output: binds
